System: U2OS
test-description: Multiplex assay against U2OS
Assay type: toxicity, cell-based
run-parameters: human, 48 h, 10 µM, compound concentration 10 uM, replicate 1
Note to self: use YES only for Population Tubulin-Different-Phenotype (%) readings below 3%; a reading exactly at 3% still gets NO.

Below are worked cases with known answers.
C[C@@H]1C[C@H]2[C@@H]3CCC4=CC(=O)C=C[C@]4(C)[C@@]3(F)[C@@H](O)C[C@]2(C)[C@@]1(O)C(=O)CO	YES
CCCC(CCC)C(=O)O	YES
Cc1ccccc1C(=O)Nc1ccc(C(=O)N2CCCC(N(C)C)c3ccccc32)cc1.Cl (centres undefined)	NO
COc1ccc2c(c1)C(C(=O)N(Cc1ccc(N(C)C)cc1)c1ccc(C(C)C)cc1)CCC2.Cl (centres undefined)	NO
Cc1ccc(/C(=C\CN2CCCC2)c2ccccn2)cc1	NO

// query Is Population Tubulin-Different-Phenotype (%) strictly under 3% for the entry `Oc1c(CN2CCN(c3ccccn3)CC2)cc(Cl)c2cccnc12` ?
// result NO

// query Is it true that Population Tubulin-Different-Phenotype (%) reported for `O=C(O)Cc1ccccc1Nc1c(Cl)cccc1Cl` is less than 3%?
// result YES

// query Please let me know if `CC(C)(C)c1ccc(S(=O)(=O)Nc2ccc(Cl)cc2C(=O)c2cc[n+]([O-])cc2)cc1` shows Population Tubulin-Different-Phenotype (%) below 3%.
// result YES

====

Test system: U2OS
test-description: Multiplex assay against U2OS
Assay type: toxicity, cell-based
run-parameters: human, 24 h, 10 µM, compound concentration 10 uM, replicate 2
Kindly return yes if reported Population Tubulin-Different-Phenotype (%) is no lower than 9%; return no if it is lower.

O=C(NCCO)c1cccc(-c2cc(Nc3ccc(OC(F)(F)F)cc3)ncn2)c1	no
Cc1ccccc1C(=O)Nc1ccc(C(=O)N2CCCC(N(C)C)c3ccccc32)cc1.Cl (stereo not drawn)	yes
Cl.Clc1ccc2nsnc2c1NC1=NCCN1 [TIZANIDINE HYDROCHLORIDE]	yes

// query Kindly determine if Population Tubulin-Different-Phenotype (%) recorded for `COc1cc(NC(=O)CCN2CCC(OC(=O)Nc3ccccc3-c3ccccc3)CC2)c(Cl)cc1CNC[C@H](O)c1ccc(O)c2[nH]c(=O)ccc12` is above or exactly 9%.
// result yes

// query Could you please find out whether CNC[C@H](O)c1ccc(O)c(O)c1 [EPINEPHRINE] has Population Tubulin-Different-Phenotype (%) that meets 9% or exceeds it?
// result no

// query Is Population Tubulin-Different-Phenotype (%) at least 9%? Consider O=S(=O)(c1ccccc1)c1cnc2c(N3CCNCC3)cccc2c1 [INTEPIRDINE]
// result no

// query Item COc1ccc2c(c1)C(C(=O)N(Cc1ccc(N(C)C)cc1)c1ccc(C(C)C)cc1)CCC2.Cl (stereo not drawn) with Population Tubulin-Different-Phenotype (%) of 9% or above?
// result yes

====

Tested on: U2OS
test-description: Multiplex assay against U2OS
Type: toxicity, cell-based
run-parameters: human, 12 h, 1 µM, compound concentration 1 uM, replicate 2
We'd kindly ask you to apply these Population Tubulin-Different-Phenotype (%) classes: I = under 4%, II = from 4% up to 7%, III = 7% and over

Recorded results for 6 compounds are shown here.
CC1(COc2ccc3c(c2)ncn3-c2ccc3cccc(N4CCC(N)CC4)c3n2)COC1	III
CCNC1(C(N)=O)CCN(c2ncnc3c2nc(-c2ccccc2Cl)n3-c2ccc(Cl)cc2)CC1	III
Cl.Clc1ccc2nsnc2c1NC1=NCCN1 [TIZANIDINE HYDROCHLORIDE]	I
Cc1ccc(/C(=C\CN2CCCC2)c2ccccn2)cc1	II
CCCN1CCC[C@@H]2Cc3n[nH]cc3C[C@H]21.Cl [QUINPIROLE HYDROCHLORIDE]	I
CCOc1c2c(c(OCC)c3ncccc13)CN(c1ccc(CS(=O)(=O)NC(=O)Cc3ccccc3OC)cc1C)C2=O	II

Turning now to a further compound:
// query Any idea which band `Cc1nc2ccc(Oc3ccc(F)cc3)cc2c(=O)n1C[C@H]1CCCN(C(C)C)C1.Cl` is in?
// result III
